So I've got a bunch of sequences here, and I need their Optimal dose values.
System: DRG neurons
testSummary: Neurite outgrowth of adult DRG neurons on CNS myelin spots
Format: cell-based, mice
testSettings: chosen from dose-response curve of neurite outgrowth assays of DRGs on CNS myelin
Please reply with the bare figure in µg/mL and do not write the unit itself.

Tell me measured Optimal dose for MTAIIKEIVSRNKRR [PAP1] please.
2.5

Tell me measured Optimal dose for IHCKAGKGRTGVMIC [PAP3] please.
5

Tell me measured Optimal dose for TVEEPSNPEASSSTSVTPD [PAP4] please.
5

Tell me measured Optimal dose for PENEPFDEDQHSQITKV [PAP5] please.
5

Tell me measured Optimal dose for KHKNHYKIYNLCAE [PAP2] please.
10

The reported numbers originate from patent US10011638B2.
